Cited source for all entries: patent EP4095134A1

experiment-summary: CNS penetration, single compound oral or intravenous administration, brain and plasma by LC-MS/MS
Type: in vivo, C57B16/J mice
stated-conditions: C57B16/J, brain and plasma, oral; mouse; p.o (5 mg/kg); AUC 0-24 h; read-out: CNS penetration: total brain to plasma ratio AUC 0-24 h
endpoint-name: Kp

molecule	result-number
O=C(Nc1ccc(OC(F)(F)F)cc1)Nc1cccnc1Oc1ccccc1C1(C(F)(F)F)CCO1 (stereo not shown)	1.9

----------
experiment-summary: CNS penetration, single compound oral or intravenous administration, brain and plasma by LC-MS/MS
Format: in vivo, C57B16/J mice
stated-conditions: brain, po; mouse; p.o (5 mg/kg); AUC 0-24 h; read-out: CNS penetration: total brain to plasma ratio AUC 0-24 h
endpoint-name: Kp at 24 h

compound	endpoint-name	result-number
O=C(Nc1ccc(OC(F)(F)F)cc1)Nc1cccnc1Oc1ccccc1[C@@]1(C(F)(F)F)CCO1 [drawing 315]	Kp at 24 h	2.6
Cc1ccc(NC(=O)Nc2ccc(OC(F)(F)F)cc2F)c(Oc2ccccc2[C@@]2(C(F)(F)F)CCO2)n1 [drawing 319]	Kp at 24 h	1.7
Cc1ccc(NC(=O)Nc2ccc(Cl)cc2F)c(Oc2ccccc2[C@@]2(C(F)(F)F)CCO2)n1 [drawing 320]	Kp at 24 h	1.3
O=C(Nc1ccc(OC(F)(F)F)cc1)Nc1cccnc1Oc1ccccc1[C@]1(C(F)(F)F)CCO1 [drawing 316]	Kp at 24 h	2.4
